- Tested on: RPMI-8226 leukemia
- protocol: NCI-60 one-dose screen, 48 h
- experimental-context: 10 µM unless noted
Compounds without any hit were thinned out: in the full panel of roughly 83,000, 20% have a hit. The source made the active and inactive calls. How the source made its calls: active means growth percent below 10; inactive means the rest.
Outcome codes: label 1 = active, label 0 = inactive

1. CC(O)C(N)=O (stereo unspecified)	label 0
2. CCOC(=O)C1C(=O)C(=O)N(C(C)C)C1C(=O)OCC (stereo unspecified)	label 0
3. O=Nc1c(-c2c(O)[nH]c3cc(Br)ccc23)[nH]c2ccccc12	label 1
4. O=C(Nc1ccc(Cl)c(Cl)c1)O/N=C\c1c(Cl)ccc([N+](=O)[O-])c1Cl	label 1
5. CC(=O)O.[In]	label 0
6. O=C(NC1CCN(Cc2ccccc2)CC1)c1cc(-c2cccnc2)nc2ccc(Cl)cc12	label 0
7. Cn1c2c(cc(S(=O)(=O)c3ccccc3)c1=O)CCc1c-2cnn1-c1ccc(Cl)cc1	label 0
8. O=c1c2c(c3ccccc3n1-c1ccccc1)NC(=S)NC2c1ccc(Cl)cc1 (stereo unspecified)	label 1
9. COc1cc(OC)c2c(=O)cc(-c3ccccc3)oc2c1	label 0
10. [N-]=[N+]=Nc1ncc(-c2ccc(C(F)(F)F)cc2)c(NC2CCCCCC2)n1	label 1
11. COc1cc2c(c3c1c(=O)c1cccc(F)c1n3C)C=CC(C)(C)O2	label 0
12. CC(=O)OCC(=O)[C@@]1(O)[C@H](C)C[C@H]2[C@@H]3C=C(C)C4=Cc5c(cnn5-c5ccc(F)cc5)C[C@]4(C)[C@H]3[C@@H](O)C[C@@]21C	label 1
13. CC(=O)OCC1O[C@@H](OC(C)=O)[C@@H](NC(=O)NS(=O)(=O)c2ccccc2)C(OC(C)=O)[C@@H]1OC(C)=O (stereo partly specified)	label 0
14. C=C(NC(=O)[C@H](C(C)C)N(C)c1cccc2[nH]ccc12)C(=O)OC	label 1
15. Cc1cc2cn3c4ccc(O)cc4nc(N)c3c2cc1C	label 1
16. CCCCCCN(CCCCCC)CCC(=O)Nc1ccc(S(=O)(=O)c2ccc(NC(=O)CCN(CCCCCC)CCCCCC)cc2)cc1	label 0
17. CCOc1ccccc1/C=N\N=C(N/N=C/c1ccccc1OCC)N/N=C/c1ccccc1OCC	label 0
18. S=C(N/N=C/c1cc(Cl)cc(Cl)c1)NC12CC3CC(CC(C3)C1)C2	label 0
19. Cc1cc2cn3c4ccc(O)cc4[nH]c(=O)c3c2cc1C	label 1
20. Ic1ccc(SSc2ccc(I)cc2)cc1	label 0
21. Nc1ccc(N=Nc2ccccc2)c2cc(S(=O)(=O)O)ccc12	label 0
